Target: OX1 (Homo sapiens, UniProt O43613)
Sequence (O43613 1-425): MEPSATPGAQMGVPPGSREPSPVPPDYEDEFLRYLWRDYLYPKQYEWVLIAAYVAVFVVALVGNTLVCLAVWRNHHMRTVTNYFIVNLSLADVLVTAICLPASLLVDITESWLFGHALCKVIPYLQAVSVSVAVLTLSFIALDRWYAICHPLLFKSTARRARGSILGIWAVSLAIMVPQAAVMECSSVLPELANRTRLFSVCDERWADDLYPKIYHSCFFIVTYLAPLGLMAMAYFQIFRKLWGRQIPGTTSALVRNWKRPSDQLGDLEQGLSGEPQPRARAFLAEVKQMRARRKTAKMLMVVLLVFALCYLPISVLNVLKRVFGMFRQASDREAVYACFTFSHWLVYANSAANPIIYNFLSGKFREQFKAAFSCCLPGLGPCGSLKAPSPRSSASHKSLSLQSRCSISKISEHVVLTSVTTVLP
Test: Orexin-receptor binding ability, [125I]-OX-A, CHO cell membranes expressing OX1
Parameters: expressed in transfected cells; host or cells: CHO cells (membrane preparation)
Conditions: membranes of recombinant CHO cells, 0.2 nM [125I]-OX-A tracer; read-out: OX1 (IC50)
quantity: pIC50
Just so you know, pIC50 here is -log10 of the concentration in molar units; reply with that number alone.

What value of measured pIC50 is listed for `CCn1cc(OC[C@@]2(c3ccccc3)C[C@H]2C(=O)Nc2ccc(F)cc2)c(C)n1` ? 5.88

What value of measured pIC50 is listed for `COc1ccc(OC[C@@]2(c3ccccc3)C[C@H]2C(=O)Nc2ccc(C#N)cn2)cc1OC` ? 6.89

What value of measured pIC50 is listed for `Cc1cc(NC(=O)[C@@H]2C[C@@]2(CCn2nc(C(F)F)nc2C)c2ccccc2)ncc1F` ? 7.00

What value of measured pIC50 is listed for `Cc1nc(C2CC2)nn1CC[C@@]1(c2ccccc2)C[C@H]1C(=O)Nc1ccc(C#N)cn1` ? 6.58

What value of measured pIC50 is listed for CCn1nc(C)c(Cl)c1OCC1(c2ccccc2)CC1C(=O)Nc1ccc(Cl)cn1 (centres unmarked) ? 6.32

What value of measured pIC50 is listed for COc1ccc(OCC2(c3ccccc3)CC2C(=O)Nc2ccncc2Cl)cc1OC (centres unmarked) ? 6.36

What value of measured pIC50 is listed for COc1ccc(OCC2(c3ccccc3)CC2C(=O)Nc2cncc(F)c2)cc1OC (centres unmarked) ? 6.09

What value of measured pIC50 is listed for CCn1cc(OCC2(c3ccccc3)CC2C(=O)Nc2ccc(Cl)cn2)cn1 (centres unmarked) ? 6.79

What value of measured pIC50 is listed for `CCn1cc(OC[C@@]2(c3cccc(F)c3)C[C@H]2C(=O)Nc2ccc(C#N)cn2)c(C)n1` ? 7.89

What value of measured pIC50 is listed for COc1ccc(S(=O)(=O)CC2(c3ccccc3)CC2C(=O)Nc2ccc(Cl)cn2)cc1OC (centres unmarked) ? 6.58

What value of measured pIC50 is listed for COc1ccc(OCC2(c3ccccc3)CC2C(=O)Nc2cncc(Cl)c2)cc1OC (centres unmarked) ? 6.48

What value of measured pIC50 is listed for COc1ccc(OCC2(c3ccccc3)CC2C(=O)Nc2cc(C#N)ccn2)cc1OC (centres unmarked) ? 6.98

What value of measured pIC50 is listed for `Cc1nn(C)c(=O)cc1OC[C@@]1(c2ccccc2)C[C@H]1C(=O)Nc1ccc(F)cc1` ? 6.39

What value of measured pIC50 is listed for COc1ccc(OCC2(c3ccccc3)CC2C(=O)Nc2cc(C)on2)cc1OC (centres unmarked) ? 6.30

What value of measured pIC50 is listed for CCn1cc(OC[C@@]2(c3cccc(F)c3)C[C@H]2C(=O)Nc2ccc(F)cn2)c(C)n1 [Example 87] ? 6.87

What value of measured pIC50 is listed for `Cc1nc(C(F)(F)F)nn1CC[C@@]1(c2ccccc2)C[C@H]1C(=O)Nc1ccc(F)cn1` ? 6.78

What value of measured pIC50 is listed for `CCn1cc(OC[C@@]2(c3cccc(F)c3)C[C@H]2C(=O)Nc2ccc(F)cc2)c(C)n1` ? 7.08

What value of measured pIC50 is listed for Cc1noc2cc(OCC3(c4ccccc4)CC3C(=O)Nc3ccc(C#N)cn3)ccc12 (centres unmarked) ? 6.28

What value of measured pIC50 is listed for `Cc1cc(NC(=O)[C@@H]2C[C@@]2(COc2cc(=O)n(C)nc2C)c2ccccc2)ncc1F` ? 6.11
